- experimental-system: Potassium voltage-gated channel subfamily A member 3 (Homo sapiens)
- assay-details: Inhibition of human Kv1.3 expressed in Xenopus laevis Oocyte cells by Electrophysiology recording
- Type: cell-based
metric: pIC50
# reply with the number alone; pIC50 is -log10 of concentration in mol/L

Enquiry: // returns reported pIC50 for input CCCNC(=O)O[C@H]1CC[C@@](CNC(=O)c2ccccc2OC)(c2ccsc2)CC1
Return: 6.87

* * *

- experimental-system: Potassium voltage-gated channel subfamily A member 3 (Homo sapiens, UniProt P22001)
- Sequence (P22001 whole entry): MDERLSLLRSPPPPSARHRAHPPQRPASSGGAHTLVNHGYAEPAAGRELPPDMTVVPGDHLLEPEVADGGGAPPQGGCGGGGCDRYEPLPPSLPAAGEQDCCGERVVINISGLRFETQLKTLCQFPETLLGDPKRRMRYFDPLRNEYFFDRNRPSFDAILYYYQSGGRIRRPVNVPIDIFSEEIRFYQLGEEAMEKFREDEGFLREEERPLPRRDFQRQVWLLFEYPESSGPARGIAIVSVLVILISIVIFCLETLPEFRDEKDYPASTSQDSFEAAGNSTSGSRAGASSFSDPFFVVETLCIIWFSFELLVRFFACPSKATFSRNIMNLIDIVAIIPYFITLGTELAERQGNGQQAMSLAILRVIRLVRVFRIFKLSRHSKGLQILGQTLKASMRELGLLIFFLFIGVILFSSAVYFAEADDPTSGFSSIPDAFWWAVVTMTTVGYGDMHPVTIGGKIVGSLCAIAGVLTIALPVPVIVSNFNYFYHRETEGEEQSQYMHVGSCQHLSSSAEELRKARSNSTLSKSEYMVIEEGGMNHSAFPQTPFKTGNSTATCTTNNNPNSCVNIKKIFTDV
- assay-details: Inhibition of Kv1.3 (unknown origin) expressed in PBMC derived PHA-activated T-lymphocyte cells incubated for 5 days by manual patch clamp method
- Assay type: cell-based
Recorded pIC50 for the following molecules
Formally, pIC50 is defined as -log10 of the concentration c, with c in mol/L.

// below: answered molecules
[[record]]
smiles_record = "COc1ccccc1C(=O)NC[C@]1(c2ccsc2)CC[C@H](O)CC1"
data_value = 7.25

[[record]]
smiles_record = "C=CCNC(=O)O[C@H]1CC[C@@](CNC(=O)c2ccccc2OC)(c2ccsc2)CC1"
data_value = 7.43


# next molecule below
Enquiry: Look up pIC50 for this molecule: CCCNC(=O)O[C@H]1CC[C@@](CNC(=O)c2ccccc2OC)(c2ccsc2)CC1
Return: 7.58

* * *

- assay-details: Aqueous solubility of compound in DMEM
- Assay type: physicochemical
metric: solubility (µM)
Answer with a number only, understood to be in µM.

Enquiry: # query: solubility of entry O=c1ccc2c(OCCCCOc3ccc(O)cc3)c3ccoc3cc2o1
Return: 0.6

* * *

- assay-details: Thermodynamic solubility of the compound at pH 7.4 incubated for 24 hrs under shaking condition by HPLC analysis
- Assay type: physicochemical
- reported-conditions: buffer, read-out: Therm_solubility
metric: solubility thermodynamic at 24 h (µM)
Express it in µM; write the number only.

[[record]]
smiles_record = "CCCNC(=O)O[C@H]1CC[C@@](CNC(=O)c2ccccc2OC)(c2ccsc2)CC1"
unit_symbol = "µM"
data_value = 22


Enquiry: Look up solubility thermodynamic at 24 h for this compound: COc1ccccc1C(=O)NCC1(c2ccsc2)CCC(=O)CC1
Return: 400

Enquiry: And then COc1ccccc1C(=O)NCC1(c2cccs2)CCC(=O)CC1 , what is it?
Return: 210

Enquiry: Let us now turn to COc1ccccc1C(=O)NC[C@]1(c2ccsc2)CC[C@H](O)CC1
Return: 72

* * *

- experimental-system: Potassium voltage-gated channel subfamily A member 3 (Homo sapiens)
- assay-details: Inhibition of human Kv1.3 expressed in Xenopus laevis Oocyte cells at 10 uM by manual patch clamp method relative to control
- Type: cell-based
Entries and their inhibition
Report as a plain number; the unit % is understood.

[[record]]
smiles_record = "CCCNC(=O)O[C@H]1CC[C@](CNC(=O)c2ccccc2OC)(c2ccccc2)CC1"
experimental_system = "Potassium voltage-gated channel subfamily A member 3 (Homo sapiens)"
metric = "inhibition"
unit_symbol = "%"
data_value = 40.5

[[record]]
smiles_record = "COc1ccc(F)cc1C(=O)NCC1(c2cccs2)CCC(=O)CC1"
experimental_system = "Potassium voltage-gated channel subfamily A member 3 (Homo sapiens)"
metric = "inhibition"
unit_symbol = "%"
data_value = 39.1

[[record]]
smiles_record = "COc1ccccc1C(=O)NCC1(c2ccsc2)CCC(=O)CC1"
experimental_system = "Potassium voltage-gated channel subfamily A member 3 (Homo sapiens)"
metric = "inhibition"
unit_symbol = "%"
data_value = 97

[[record]]
smiles_record = "COc1ccc(F)cc1C(=O)NC[C@]1(c2cccs2)CC[C@@H](O)CC1"
experimental_system = "Potassium voltage-gated channel subfamily A member 3 (Homo sapiens)"
metric = "inhibition"
unit_symbol = "%"
data_value = 54.9


Enquiry: Find the recorded inhibition belonging to COc1ccccc1C(=O)NC[C@]1(c2ccsc2)CC[C@@H](O)CC1 and report it.
Return: 78.5

Enquiry: Next record, please: COc1ccccc1C(=O)NC[C@]1(c2ccsc2)CC[C@@H](N)CC1
Return: 0.65

Enquiry: For COCCCNC(=O)O[C@H]1CC[C@](CNC(=O)c2ccccc2OC)(c2ccsc2)CC1 then?
Return: 94.5

Enquiry: # repeat for CCCNC(=O)O[C@H]1CC[C@](CNC(=O)c2ccccc2OC)(c2ccsc2)CC1
Return: 25.5

Enquiry: Next entry: COc1ccccc1C(=O)NC[C@]1(c2ccsc2)CC[C@H](N)CC1
Return: 6.46

Enquiry: Try this compound next: C=CCNC(=O)O[C@H]1CC[C@@](CNC(=O)c2ccccc2OC)(c2ccsc2)CC1
Return: 36.2

Enquiry: How about this compound: COc1ccccc1C(=O)NCC1(c2ccccc2)CCC(=O)CC1
Return: 87.5

Enquiry: What about this compound? COc1cc(C)ccc1C(=O)NCC1(c2cccs2)CCC(=O)CC1
Return: 85.6

Enquiry: Another compound to check: CCCNC(=O)O[C@H]1CC[C@@](CNC(=O)c2ccccc2OC)(c2ccsc2)CC1
Return: 90.7

Enquiry: Param item: CNC(=O)O[C@H]1CC[C@](CNC(=O)c2ccccc2OC)(c2cccs2)CC1
Return: 94.7

* * *

- experimental-system: Potassium voltage-gated channel subfamily A member 2 (Homo sapiens)
- Sequence (P16389 whole entry): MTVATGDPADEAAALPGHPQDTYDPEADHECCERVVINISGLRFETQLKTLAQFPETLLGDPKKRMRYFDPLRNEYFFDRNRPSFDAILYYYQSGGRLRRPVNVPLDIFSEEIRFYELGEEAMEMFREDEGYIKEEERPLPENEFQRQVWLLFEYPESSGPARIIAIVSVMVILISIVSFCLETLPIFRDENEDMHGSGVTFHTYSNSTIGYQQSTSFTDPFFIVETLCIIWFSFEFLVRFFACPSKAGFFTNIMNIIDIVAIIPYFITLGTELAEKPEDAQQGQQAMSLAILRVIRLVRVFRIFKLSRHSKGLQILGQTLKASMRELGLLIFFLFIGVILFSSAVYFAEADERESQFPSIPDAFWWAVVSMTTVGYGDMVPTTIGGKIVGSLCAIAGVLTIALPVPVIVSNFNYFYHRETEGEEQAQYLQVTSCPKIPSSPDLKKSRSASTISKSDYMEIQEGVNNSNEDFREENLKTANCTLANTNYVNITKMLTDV
- assay-details: Inhibition of Kv1.2 (unknown origin) expressed in Xenopus laevis Oocyte cells by electrophysiological recording
metric: pIC50
Bear in mind: pIC50 is minus log10 of a mol/L concentration; give just that figure.

Enquiry: Item under review: CCCNC(=O)O[C@H]1CC[C@@](CNC(=O)c2ccccc2OC)(c2ccsc2)CC1 . Reported pIC50?
Return: 6.51

* * *

- experimental-system: Potassium voltage-gated channel subfamily A member 3 (Homo sapiens)
- assay-details: Inhibition of Kv1.3 in human T-lymphocyte by electrophysiology recordings
- Assay type: cell-based
metric: pIC50
pIC50 is defined as minus the log10 of a concentration measured in mol/L.

Enquiry: Need pIC50 of COc1ccccc1C(=O)NCC1(c2ccccc2)CCC(=O)CC1 , thanks.
Return: 6.51

* * *

- experimental-system: Potassium voltage-gated channel subfamily A member 3 (Homo sapiens, UniProt P22001)
- assay-details: Inhibition of Kv1.3 (unknown origin) expressed in Xenopus laevis Oocyte cell membrane by Electrophysiology recording
- Type: cell membranes
metric: pIC50
Field pIC50 (float): negative decimal logarithm of the concentration in molar.

Enquiry: Need pIC50, item COc1ccccc1C(=O)NCC1(c2ccsc2)CCCC1
Return: 4.76

* * *

Listed molecules paired with reported inhibition
- experimental-system: Potassium voltage-gated channel subfamily A member 3 (Homo sapiens, UniProt P22001)
- assay-details: Inhibition of human Kv1.3 expressed in Xenopus laevis Oocyte cells at 10 uM by manual patch clamp method relative to control
- Assay type: cell-based
Express the result in % but write the number alone.

[[record]]
smiles_record = "CNC(=O)O[C@H]1CC[C@@](CNC(=O)c2ccccc2OC)(c2ccsc2)CC1"
experimental_system = "Potassium voltage-gated channel subfamily A member 3 (Homo sapiens, UniProt P22001)"
data_value = 93

[[record]]
smiles_record = "O=C1CCC(CNC(=O)c2ccoc2)(c2cccs2)CC1"
experimental_system = "Potassium voltage-gated channel subfamily A member 3 (Homo sapiens, UniProt P22001)"
data_value = 55.3

[[record]]
smiles_record = "CNC(=O)O[C@H]1CC[C@](CNC(=O)c2ccccc2OC)(c2ccsc2)CC1"
experimental_system = "Potassium voltage-gated channel subfamily A member 3 (Homo sapiens, UniProt P22001)"
data_value = 79.6


Enquiry: GET /values?readout=inhibition&item= O=C(NC[C@]1(c2cccs2)CC[C@@H](O)CC1)c1ccoc1
Return: 0

Enquiry: Lookup COc1ccc(C)cc1C(=O)NCC1(c2cccs2)CCC(=O)CC1
Return: 23.3

Enquiry: Now give it for CNC(=O)O[C@H]1CC[C@@](CNC(=O)c2ccccc2OC)(c2cccs2)CC1 too.
Return: 93.8

Enquiry: Follow-up entry: COc1ccccc1C(=O)NC[C@]1(c2cccs2)CC[C@H](O)CC1
Return: 90.9

Enquiry: Moving on to CCCNC(=O)O[C@H]1CC[C@@](CNC(=O)c2ccccc2OC)(c2ccccc2)CC1
Return: 87.3

Enquiry: Request: COc1ccc(F)cc1C(=O)NC[C@]1(c2cccs2)CC[C@H](O)CC1
Return: 66.4

Enquiry: Another: COc1ccccc1C(=O)NC[C@]1(c2ccsc2)CC[C@H](O)CC1
Return: 97.6

Enquiry: Same question, O=C(NC[C@]1(c2cccs2)CC[C@H](O)CC1)c1ccoc1 this time
Return: 65.7

Enquiry: Next record, please: COc1ccccc1C(=O)NC[C@]1(c2cccs2)CC[C@@H](O)CC1
Return: 38.5

Enquiry: Could you do the same for COc1ccccc1C(=O)NCC1(c2cccs2)CCC(=O)CC1 , please?
Return: 95.1

Enquiry: Then COCCCNC(=O)O[C@H]1CC[C@](CNC(=O)c2ccccc2OC)(c2cccs2)CC1 ?
Return: 91.6
